test system: HCT-116 colon; experiment: NCI-60 one-dose screen, 48 h (100 = growth as untreated, 0 = no growth, -100 = all killed); conditions: 10 µM unless noted
This is part of a sample that, as a whole, favours compounds with a hit. Of some 83,000 tested, about 20% had one in any assay.
This section presents molecules with their documented growth values.
propertyMeasured: growth (%)

• CCN(CC)CC(O)CNc1c2ccc([N+](=O)[O-])cc2nc2cc(OC)c(OC)cc12 (stereo not given) = -23.5
• C[C@@H]1CC[C@@H]2[C@@H]1[C@H](OC(=O)/C=C/c1ccccc1)[C@]1(c3ccccc3)C[C@@H](OC(=O)CO)[C@@]2(C)O1 = 89.5
• CC(=O)CC(C)(C)c1ccc(Cl)cc1 = 97.5
• COc1cc(C2CC(=O)c3c(C)nn(-c4nc5ccccc5[nH]4)c3C2)cc(OC)c1OC (stereo not given) = 68.7
• COc1ccc(N(Cc2cc(OC)c(OC)c(OC)c2)C2OC(=O)c3ccccc32)cc1 (stereo not given) = 23
• C=C1CCC2C3(C)COC(C)(C)OC3CCC2(C)C1C/C=C1/C(=O)OCC1OC(C)=O (stereo not given) = -21.1
• COc1ccc(/C=C2\CN(C(=O)CCN3CCC(=NO)CC3)C/C(=C\c3ccc(OC)cc3)C2=O)cc1 = -31.8
• CN[C@@]12CC3(C=CC(=O)C=C3)O[C@]1(Cc1ccc(OC)cc1)N(C)C(=O)N2 = 4.01
• CN1CCN(Cc2ccc(NC(=O)c3[nH]ncc3Nc3ncnc4sccc34)cc2)CC1 = 6.91
• O=C([C@@H](COCc1ccccc1)N1C(=O)[C@@H](N2C(=O)OC[C@@H]2c2ccccc2)[C@H]1/C=C/c1ccccc1)N1CCC(CCN2CCCCC2)CC1 = 83.1
• O=c1c(/C=C/c2ccco2)nnc(SCCN2CCOCC2)n1/N=C/c1ccc([N+](=O)[O-])cc1 = 95
• c1ccc2c(Nc3cccc4ccccc34)cccc2c1 = 30.3
• CCCN(CCC)CN(CCC)CCC = 95.7
• Clc1nc(Cl)c2c3c(sc2n1)CCCC3 = 12.5
• ClC1=C2NC=NC2n2c(nnc2-c2ccc(Cl)cc2)N1 (stereo not given) = 98.5
• COC(=O)[C@H](C(C)C)n1c(=O)c2cc(OC)c(OC)cc2c2cnc3[nH]ccc3c21 = 41.4
• COc1c(C2CC(=O)Nc3c2cnn3Cc2ccco2)cc2c(c1OC)OCO2 (stereo not given) = 12.8
• CC/C=C\C[C@H](F)C/C=C1/C(=O)C=C[C@@H]1C/C=C\CCCC(=O)O = -15.7
• CCn1cc2c(cc1=O)-c1nc3ccccc3c3ccnc(c13)C2=O = 50
• O=C(N/N=C/c1ccc(O)cc1O)c1cccnc1 = 29.8

----------
test system: EKVX NSCLC; assay: NCI-60 one-dose screen, 48 h; conditions: 10 µM unless noted
About 83,000 compounds went through this panel and 20% of them were active in at least one assay; those are over-represented in the sample as a whole. The source made the active and inactive calls. Rule for the calls: active = growth percent below 10; inactive = the rest.
Labels: y = active, n = inactive

* CC[C@H](Nc1ncnc(N)c1C(N)=O)c1nc2cccc(NCc3ccc(C(=O)NO)cc3)c2c(=O)n1-c1ccccc1 | n
* Nc1nc2ccc(-c3nc4ccc5[nH]ncc5c4c4c3CCC4)cc2s1 | n
* CN1CCN(Cc2ccc(NC(=O)c3cncc(C#Cc4cncc5nccnc45)c3)cc2C(F)(F)F)CC1 | n
* COc1ccc(-c2cc(-c3cccnc3)nc3sc4c(=O)n(-c5ccc(C)cc5)cnc4c23)cc1OC | n
* CCOC(=O)C(C#N)C1CCCCC1 (stereo unspecified) | n
* COc1ccc(-c2cc(=O)[nH]c3c(OC)c4ccccc4c(OC)c23)cc1 | n
* CSc1ccc(N=C=C(c2ccccc2)c2ccccc2)cc1 | n
* COc1ccc(C(=O)/C=C/c2c[n+](=O)c3ccc(F)cc3n2[O-])cc1 | n
* C(=N\Nc1nnn(Cc2ccccc2)n1)/c1ccccc1 | n
* COc1cnc2c(c1)C(=O)c1c-2n(CCCN2CCNCC2)c(=O)c2cc([N+](=O)[O-])ccc12 | y
* C(=N\Nc1ccccn1)/c1ccccn1 | n
* NC(N)=Nc1ccc(S(=O)(=O)O)cc1 | n
* NCCN1CCN(c2nccc(-c3ccc4ccccc4c3)n2)CC1 | n
* Oc1cc(O)c2c(=S)cc(-c3ccc(Cl)cc3)oc2c1 | n
* O=C(CO[N+](=O)[O-])Nc1ccc(C(=O)/C=C/c2ccc(Cl)cc2)cc1 | n
* COc1ccc(-c2cc(-c3ccc(N(C)C)cc3)nc(NC(=O)c3ccncc3)n2)cc1 | n
* COc1cccc(/C=C\C(=O)c2ccccc2)c1 | n
* CC/C=C\C[C@H](O)C/C=C1/C(=O)C=C[C@@H]1C/C=C\CCCC(N)=O | n
* COc1ccc(-c2cc(NC(=O)Nc3ccc(O)cc3)no2)cc1 | n
* OC(c1cccc(C(F)(F)F)c1)c1cnccc1NC1CCCCCC1 (stereo unspecified) | n
* O=C(Cc1ccccc1)c1ccc(Cl)cc1 | n
* CCOC(=O)C(=Cc1ccccc1F)C(=O)OCC | n
* CCOC(=O)C12CCCC1=CC(=O)CC2 (stereo unspecified) | n
* COc1ccc(-c2nn(-c3ccccc3)cc2/C=C2\SC(=O)NC2=O)cc1 | n
* O=c1c2c3c(sc2n2c(CCl)nnc2n1Cc1ccccc1)CCCC3 | y
* CCN(CC)CCCCNc1ccc(NCCCCN(CC)CC)c2c1C(=O)c1ccccc1C2=O | n
* C=CC[N+]1(CCO)CCN=C1CCCCCCCCCCCCC (stereo unspecified) | y
* C=C1CC[C@@H]2[C@](C)(COC(C)=O)[C@H](OC(C)=O)CC[C@@]2(C)[C@@H]1CC(NCc1ccc(F)cc1)C1=CCOC1=O (stereo partly specified) | n
* CC(C)(C)c1nn(-c2ccccc2)c2c1CC1(CN2Cc2ccc3c(c2)OCO3)C(=O)c2ccccc2C1=O | n
* Cc1ccc(-c2nc(/C=N/Nc3cc(C)nc4ccc(Cl)cc34)c(C)o2)cc1 | y
* COCCCNc1nc(NC(=O)c2ccc(F)cc2C)cc(-c2cccnc2)n1 | n
* O=c1c(/C=C/c2ccco2)nnc(SCCN2CCOCC2)n1/N=C/c1ccc([N+](=O)[O-])cc1 | n
* NC1=CC(=O)C(=O)c2ccccc21 | n
* CNCCCn1c2c(c3ccc([N+](=O)[O-])cc3c1=O)C(=O)c1cc(OC)cnc1-2 | y
* Cc1ccc2c(c1)n([O-])c1cc(Cl)ccc1[n+]2=O | n
* C=C1CCC2C3(C)COC(c4ccc(SC)cc4)OC3CCC2(C)C1C/C=C1/C(=O)OCC1O (stereo unspecified) | n
* Cc1ccc2c(c1)C(=O)c1c-2c(OCCCN(C)C)nc2ccccc12 | n
* Nc1nc2c(c3ncccc13)C(c1ccc(Cl)c(Cl)c1)Cc1ncccc1-2 (stereo unspecified) | n
* CC(=O)O[C@H]1CC[C@]2(C)[C@H]3CC[C@@H]4[C@H]5[C@H](C(C)C)CC[C@]5(C(=O)OCC(CO)(CO)N=C(N)N)CC[C@@]4(C)[C@]3(C)CC[C@H]2C1(C)C | n
* CCCCCCCCCCCCCCCCCCSC1=CC(=O)C(OC)=C(OC)C1=O | n
* O=C(CN1CCN(c2cc3c(cc2F)c(=O)c(C(=O)O)cn3C2CC2)CC1)Nc1cc(=O)[nH]c(=O)[nH]1 | n
